Where these numbers come from: ChEMBL document CHEMBL4513216

Tested on: Plasmodium berghei
Assay Comment: Screen against P. berghei liver stage (PbLuc), transformed with Luciferase, at 2uM
Assay type: functional, HepG2
Reported Conditions: tested at 2 uM
In all, about 68,000 compounds went through this assay and about 2,700 (4%) showed an effect of 50% or more. For the sample, strong results were picked, then their nearest neighbours and some compounds at random.
Outcome Measure: INHIBITION (%)
Answers are plain numbers, in %.

Examples with their reported INHIBITION follow.
• O=S(=O)(c1ccc2c(c1)OCCO2)N1CCc2ccccc2C1 = 50.57
• O=S(=O)(c1ccc2c(c1)OCCO2)N1CCC(OCc2ccccn2)C1 (stereo unspecified) = -26.14
• COc1cc(C(=O)N(Cc2cnn(C)c2)C(C)C)ccc1OCC(N)=O = -61.5
• CS(=O)(=O)c1cncnc1C1CCCN(C(=O)Nc2ccc(F)cc2)C1 (stereo unspecified) = -0.7
• CCC[C@@H]1CN(Cc2cc(C#N)n(C)c2C)C[C@H]1NS(C)(=O)=O = 1.88

Field: INHIBITION. Fill in for each record below.
1. O=S(=O)(c1ccc(F)cc1)n1cc(Cl)cn1
2. CN(Cc1ccsc1)C(=O)c1ccc(C2CCCO2)s1 (stereo unspecified)
3. Cc1cc(N2CCOC(C)(C(=O)N(C)C)C2)ncn1 (stereo unspecified)
4. CCC(CO)(CO)NC(=O)C1CCC(=O)N(CCc2ccccc2)C1 (stereo unspecified)
5. COc1ccc(C(=O)N(Cc2cnn(C)c2)C(C)C)cc1Br
6. CC(C)CNc1cc(-c2c[nH]nc2C2CCN(C(=O)C3CC3)C2)ccn1 (stereo unspecified)
7. O=C(NCC1CCOC1)c1csc(Cc2ccccc2)n1 (stereo unspecified)

1: -0.9; 2: -15.11; 3: 58.29; 4: -19.02; 5: 9.36; 6: 13.98; 7: 28.14

Field: INHIBITION. Fill in for each record below.
1. C[C@H]1C[C@H]2CN(S(=O)(=O)c3ccc(F)cc3)CC[C@@H]2O1
2. CCNC(=O)C1CCN(Cc2ccccc2OCC(F)(F)F)CC1
3. Cc1cc(C(=O)N(CC(F)(F)F)C2CCOCC2)c(C)o1
4. O=C(c1cccnc1Oc1ccc(Cl)cc1)N1CC[C@@H](O)C1
5. Cc1ccc(-c2noc([C@@H]3C[C@H](NC(=O)CC(C)(C)C)CN3C)n2)cc1
6. CC(C)N(CCO)C(=O)C1CCC(=O)N(CCc2ccc(Cl)cc2)C1 (stereo unspecified)
7. CC(C)c1noc(-c2ccc(NCCCN3CCCC(O)C3)nc2)n1 (stereo unspecified)

1: -21.77; 2: 8.59; 3: 7.68; 4: 18.2; 5: 29.3; 6: 17.2; 7: 22.57

Field: INHIBITION. Fill in for each record below.
1. O=C(NCCN1CCCCC1)c1ccoc1
2. N#Cc1ccccc1CNC(C(=O)N1CCOCC1)c1ccccc1 (stereo unspecified)
3. CC(=O)c1cc(CC(=O)NCc2cccc(F)c2F)cs1
4. O=C(CCn1cccc1)NCc1ccc(CN2CCCCCC2)o1

1. 6.12
2. -13.11
3. 36.26
4. 56.24

Field: INHIBITION. Fill in for each record below.
1. CN(C(=O)c1cn(C)cn1)[C@@H]1CCC[C@@H](Oc2ccccc2)[C@@H]1O
2. CS(=O)(=O)CCC(=O)N1CCC2(CCCN(C3CCOCC3)C2=O)C1 (stereo unspecified)

32.81
-11.19

###

Test system: Plasmodium berghei
Assay Comment: Screen against P. berghei liver stage (PbLuc), transformed with Luciferase, at 2uM
Type: functional, HepG2
Reported Conditions: tested at 2 uM
About 2,700 (4%) of roughly 68,000 compounds showed an effect of 50% or more. Only a selection was taken, and strong results are over-represented in it overall.
Outcome Measure: INHIBITION (%)
Numbers only, in %.

- Cc1ccc(-c2noc([C@H](N)CC(C)C)n2)nn1: 24.55
- Cc1nc2[nH]cnc(NCCN3CCCC3)c-2n1: -20.68
- CN1CCCN(C(=O)NCCNc2cnccn2)CC1: 12.88
- CC(C)NC(=O)CC1[C@H]2CN(C(=O)Cc3ccccn3)C[C@@H]12 (some centres not stated): 33.39
- CCSC(C)c1nc(-c2ccc(C)nn2)no1 (configuration not stated): 66.4
- Cn1ccnc1CN1CCN(Cc2ccc(C#N)cc2)CC1: -19.95

Field: INHIBITION. Fill in for each record below.
1. CC(C)c1ccc(-n2cc(O)c(C(=O)N3CCC(C(N)=O)CC3)n2)cc1
2. O=C(NCCNc1cnccn1)N1CCCC1
3. CS(=O)(=O)N1CCO[C@@H]2CN(C(=O)COC3CCCC3)C[C@@H]2C1
4. CCn1ccnc1CN1CCN(Cc2ccc(C#N)cc2)CC1
5. CCn1nccc1CNc1nc(N)nc2c1nc(C)n2C

[-40.06, -12.31, 17.4, 71.23, 14.79]

# INHIBITION lookup, item Cc1noc(C)c1CNC(=O)N1CCN(CC2CC2)CC1 -20.36

###

Tested on: Plasmodium berghei
Assay Comment: Screen against P. berghei liver stage (PbLuc), transformed with Luciferase, at 2uM
Format: functional, HepG2
Reported Conditions: tested at 2 uM
Out of some 68,000 compounds screened, about 2,700 (4%) showed an effect of 50% or more. What follows is part of a selection rich in strong results, with near analogues and random picks from the rest.
Exercise: for every item that follows, state its recorded INHIBITION.
Give bare numbers, in %.

Examples with their reported INHIBITION follow.
• CCc1noc(CN2CCCC(Cn3nc(C)nc3C)C2)n1 (stereo unspecified) = 21.39
• O=C(c1ccccc1)N1CCN(CC2CCOc3ccccc3C2)CC1 (stereo unspecified) = 1.88
• Cc1nc(C)n(CC2CCCN(Cc3cn4c(C)cccc4n3)C2)n1 (stereo unspecified) = 60.64
• CCc1nc(C2CCCN2C(=O)c2c[nH]c(C)n2)no1 (stereo unspecified) = -72.93
• Cc1nc(C)n(CC2CCCN2Cc2cn3c(C)cccc3n2)n1 (stereo unspecified) = -17.11

# INHIBITION lookup, item Cc1nc(C)n(CC2CCCN(Cc3nc(C4CC4)no3)C2)n1 (stereo unspecified) -38.96

###

Test system: Plasmodium berghei
Assay Comment: Screen against P. berghei liver stage (PbLuc), transformed with Luciferase, at 2uM
Assay type: functional, HepG2
Reported Conditions: tested at 2 uM
The whole screen tested about 68,000 compounds, of which about 2,700 (4%) showed an effect of 50% or more. This excerpt belongs to a sample that is enriched for strong results.
Exercise: for every item that follows, state its recorded INHIBITION.
Answers are plain numbers, in %.

- Cc1cccc(NC(=O)[C@@H]2CCCN2CC(=O)Nc2ccccc2)n1: -32.35

Field: INHIBITION. Fill in for each record below.
1. c1ccc(CN2CCC3(CC2)Nc2ccccc2CO3)cc1
2. CC(C)C(O)CNC(=O)Nc1cccc(-c2nccs2)c1 (stereo unspecified)
3. CCn1nc(CC(C)C)cc1C(=O)NCC(F)(F)F
4. Cc1nc(C2CCCN2CC(=O)NCCOc2ccc(F)cc2)no1 (stereo unspecified)

[17.25, -2.23, 1.04, 20.57]

# INHIBITION lookup, item COCC1CCN(c2ccnc3ccsc23)C1 (stereo unspecified) 15.84

###

Exercise: for every item that follows, state its recorded INHIBITION.
Test system: Plasmodium berghei
Assay Comment: Screen against P. berghei liver stage (PbLuc), transformed with Luciferase, at 2uM
Assay type: functional, HepG2
Reported Conditions: tested at 2 uM
The campaign covered roughly 68,000 compounds. About 2,700 (4%) showed an effect of 50% or more. The entries come from a sample that favours strong results as a whole.

Examples with their reported INHIBITION follow.
• Cc1cc(NC(=O)CN2CCc3cnc(C)nc3C2)on1 = 42.11%
• Cc1ncc2c(n1)CN(CC(=O)Nc1c(C)nn(C)c1C)CC2 = 64.16%
• Cc1ncc2c(n1)CN(CC(=O)Nc1cccnc1)CC2 = 51.94%
• CNC(=O)c1cc(C)nc(C2(C)CCCN2c2cc(C)ncn2)n1 (stereo unspecified) = -4.78%
• CCc1ncc2c(n1)CN(CC(=O)Nc1cccnc1)CC2 = -28.98%

Would you kindly look at the next entry?
# INHIBITION lookup, item O=C(NC1CCC1)C1CCC2(CN(C(=O)c3ccco3)C2)O1 (stereo unspecified) -160.99%

###

Test system: Plasmodium berghei
Assay Comment: Screen against P. berghei liver stage (PbLuc), transformed with Luciferase, at 2uM
Type: functional, HepG2
Reported Conditions: tested at 2 uM
Among all 68,000 compounds or so, about 2,700 (4%) showed an effect of 50% or more. The sample as a whole holds a higher share of strong results than the screen did.
Outcome Measure: INHIBITION (%)
Answers are plain numbers, in %.

Examples with their reported INHIBITION follow.
• CNC(=O)c1ccc(OC)c(NCc2ncc(-c3cccs3)o2)c1 = 2.67
• O=C(Nc1ccncc1)C1=NN(c2ccccc2)C(=O)CN1 = 17.59
• CS(=O)(=O)NCCNC(=O)c1cnc(-c2ccccc2)nc1 = 73.01
• CCOCC(=O)N1C[C@H]2CC[C@@H](C1)N(Cc1ccccn1)C2=O = 37.77

Field: INHIBITION. Fill in for each record below.
1. CN(C)CCn1c([C@@H]2CCCO2)cc2cccnc21
2. O=C1CC(c2ccc(Cl)c(Cl)c2)c2c(n3ccsc3nc2=O)N1 (stereo not drawn)
3. Cc1ccc(OCCNC(=O)C(C)n2cncn2)cc1 (stereo not drawn)
4. Cn1cc(C(=O)NCc2ccc(N3CCCC3)nc2)ccc1=O
5. COc1cc2c(cc1CNCc1ccnc(-n3cccn3)c1)OC(C)C2 (stereo not drawn)
6. COCC(=O)N1C[C@H]2CNC[C@@]2(C(=O)NCc2nc(C)cc(C)n2)C1
7. O=S1(=O)CCC(n2nc(COc3ccccc3)nc2-c2cnccn2)C1 (stereo not drawn)

[47.82, 24.44, 42.11, -0.05, 17.61, 67.44, -5.42]
